Attribution: ChEMBL document CHEMBL3988442

Biological target: Tyrosyl-tRNA synthetase, putative (Trypanosoma cruzi (strain CL Brener)) (UniProt Q4DSP6)
Sequence (Q4DSP6 as listed by the source): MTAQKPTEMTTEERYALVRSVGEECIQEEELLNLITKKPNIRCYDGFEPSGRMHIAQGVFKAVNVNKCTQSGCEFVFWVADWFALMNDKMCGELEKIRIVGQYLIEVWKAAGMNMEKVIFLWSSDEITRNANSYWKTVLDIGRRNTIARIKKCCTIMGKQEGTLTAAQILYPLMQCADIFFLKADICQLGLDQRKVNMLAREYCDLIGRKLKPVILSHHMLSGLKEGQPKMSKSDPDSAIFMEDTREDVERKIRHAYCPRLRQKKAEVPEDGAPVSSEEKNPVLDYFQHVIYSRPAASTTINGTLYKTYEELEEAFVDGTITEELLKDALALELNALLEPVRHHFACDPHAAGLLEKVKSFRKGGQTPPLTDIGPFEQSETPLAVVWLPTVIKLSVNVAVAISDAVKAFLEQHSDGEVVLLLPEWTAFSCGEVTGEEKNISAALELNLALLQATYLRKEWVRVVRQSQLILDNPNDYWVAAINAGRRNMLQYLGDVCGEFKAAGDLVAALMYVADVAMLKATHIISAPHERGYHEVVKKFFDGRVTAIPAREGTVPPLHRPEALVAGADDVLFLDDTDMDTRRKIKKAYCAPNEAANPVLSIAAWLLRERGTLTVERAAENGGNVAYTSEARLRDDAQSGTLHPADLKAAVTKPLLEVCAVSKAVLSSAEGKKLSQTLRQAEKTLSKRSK
Assay: Trypanosoma cruzi tyrosyl tRNA synthetase (TcYRS) _High Tyrosine SOP
Assay type: functional
Set-up: scale not given: in the data most compounds retested in dose-response had high values
Details: 30 µM
Assign Percent Effect to each entry below.
Numbers only, in %.

Give Percent Effect for each listed item.
1. CCC(C)NC(=O)Nc1ccc(CN2CCOC2=O)cc1 (centres undefined)
2. CC(C)Oc1cccc(C(O)CNC(=O)CCc2ccncc2)c1 (centres undefined)

(A)
1: -2.1; 2: 1.04

###

Assignment: determine reported Percent Effect for the given compounds.
Biological target: Chromo domain-containing protein 1 (Saccharomyces cerevisiae (strain ATCC 204508 / S288c) (Baker's yeast)) (UniProt P32657)
Sequence (P32657 whole entry, the tested form may be a part): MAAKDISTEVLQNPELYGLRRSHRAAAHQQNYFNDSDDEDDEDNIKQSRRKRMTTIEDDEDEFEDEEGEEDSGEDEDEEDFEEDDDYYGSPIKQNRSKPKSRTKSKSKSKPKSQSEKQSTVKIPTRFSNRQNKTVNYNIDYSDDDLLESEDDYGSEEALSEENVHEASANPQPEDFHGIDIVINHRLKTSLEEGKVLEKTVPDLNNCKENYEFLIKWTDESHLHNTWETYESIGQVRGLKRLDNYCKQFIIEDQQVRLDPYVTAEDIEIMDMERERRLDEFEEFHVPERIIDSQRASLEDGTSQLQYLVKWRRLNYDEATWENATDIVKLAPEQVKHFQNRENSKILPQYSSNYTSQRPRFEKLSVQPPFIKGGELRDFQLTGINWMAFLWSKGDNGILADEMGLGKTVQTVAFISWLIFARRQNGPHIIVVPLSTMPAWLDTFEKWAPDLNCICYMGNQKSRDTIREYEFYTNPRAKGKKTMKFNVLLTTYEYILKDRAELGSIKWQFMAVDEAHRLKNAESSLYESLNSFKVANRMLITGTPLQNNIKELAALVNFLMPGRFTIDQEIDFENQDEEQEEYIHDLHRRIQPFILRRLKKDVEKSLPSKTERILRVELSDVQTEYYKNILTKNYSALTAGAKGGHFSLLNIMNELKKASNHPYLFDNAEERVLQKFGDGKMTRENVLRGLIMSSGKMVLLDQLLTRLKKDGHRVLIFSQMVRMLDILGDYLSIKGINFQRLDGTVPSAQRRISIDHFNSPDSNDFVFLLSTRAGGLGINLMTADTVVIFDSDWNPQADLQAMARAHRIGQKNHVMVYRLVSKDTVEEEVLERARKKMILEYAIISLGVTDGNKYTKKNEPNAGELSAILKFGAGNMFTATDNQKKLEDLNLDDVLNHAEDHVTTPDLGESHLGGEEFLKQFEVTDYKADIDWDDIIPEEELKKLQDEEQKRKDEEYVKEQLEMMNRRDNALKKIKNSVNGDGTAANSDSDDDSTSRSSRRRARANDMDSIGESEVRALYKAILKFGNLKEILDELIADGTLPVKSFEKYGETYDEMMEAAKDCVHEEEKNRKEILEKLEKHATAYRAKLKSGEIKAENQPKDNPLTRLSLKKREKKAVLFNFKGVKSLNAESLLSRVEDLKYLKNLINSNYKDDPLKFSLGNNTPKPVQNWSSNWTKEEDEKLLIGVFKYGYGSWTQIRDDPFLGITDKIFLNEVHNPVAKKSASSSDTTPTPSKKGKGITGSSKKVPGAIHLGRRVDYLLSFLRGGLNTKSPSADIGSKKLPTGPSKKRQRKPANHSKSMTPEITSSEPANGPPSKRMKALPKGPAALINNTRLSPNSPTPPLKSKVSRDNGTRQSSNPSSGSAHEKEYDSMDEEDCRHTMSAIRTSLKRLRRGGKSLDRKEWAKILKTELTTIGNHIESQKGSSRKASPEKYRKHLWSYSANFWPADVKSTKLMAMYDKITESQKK
Assay: ScCHD-1 Enzyme Inhibition Assay
Type: functional
Set-up: scale not given: in the data most compounds retested in dose-response had high values
Conditions: 30 µM
Quick note: unit goes after the number.

Some solved cases for reference:
COMPOUND	MEASUREMENT
CC(C1CC1)N(C)C(=O)c1cnc(-c2ccc3c(c2)OCO3)s1 (centres undefined)	-10.2%
COc1cccc(CN(C)C(=O)Nc2ccc3c(c2)OCCO3)c1	-8.52%
Cc1cc(C)n(CC2CCCN2C(=O)c2ccc3c(c2)OCO3)n1 (centres undefined)	0.284%
CCN1C(=O)C2(CCOCC2)c2cc(NC(=O)c3ccco3)ccc21	3.7%

# return Percent Effect for each item in the list
1. CCc1nc(C2CCCN2Cc2nnc(Cc3ccccc3)o2)no1 (centres undefined)
2. O=C(c1ccc(C2CCCO2)s1)N1Cc2ccccc2C1 (centres undefined)
3. Cn1cc(CN2CC[C@@H]3O[C@H](C(=O)N4CCOCC4)C[C@@H]32)cn1
4. CNS(=O)(=O)c1ccc(C(=O)NC2CCOc3ccccc32)o1 (centres undefined)
5. O=C(NCCc1cccc(F)c1)NCC(O)c1cccc(F)c1 (centres undefined)

(A)
1. 4.27%
2. 2.95%
3. 4.62%
4. -7.69%
5. -3.01%

Count: 2. Required value per item: Percent Effect.
1. Cc1ccc(S(=O)(=O)Nc2ccc(-n3cccc3C(=O)O)c(C)c2)s1
2. CC(=O)NCC(=O)N1CCC2(CC1)CN(c1cccnc1)C(=O)CO2

(A)
4.9%
0.305%

Take each entry in turn and give its Percent Effect.
1. COCCC(=O)N1CCC(c2noc3nc(C)cc(C(F)(F)F)c23)CC1
2. CCOc1ncccc1C(=O)NCCN(CC)C1CC1

(A)
9.94%
-23.1%

###

Please provide measured Percent Effect for the entries that follow.
Target: Arginase-2, mitochondrial (Homo sapiens) (UniProt P78540)
Sequence (P78540 whole entry): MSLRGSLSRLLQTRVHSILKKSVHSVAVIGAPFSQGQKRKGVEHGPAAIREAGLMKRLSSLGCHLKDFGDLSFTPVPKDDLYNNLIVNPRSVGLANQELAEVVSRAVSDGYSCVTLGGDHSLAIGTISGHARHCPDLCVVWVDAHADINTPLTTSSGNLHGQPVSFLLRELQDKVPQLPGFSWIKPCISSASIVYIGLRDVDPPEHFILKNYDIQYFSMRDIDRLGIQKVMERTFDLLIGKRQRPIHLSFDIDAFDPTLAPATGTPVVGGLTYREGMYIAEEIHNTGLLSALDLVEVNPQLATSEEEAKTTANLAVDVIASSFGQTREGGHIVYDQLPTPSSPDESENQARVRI
Test: in vitro enzyme assay to detect the production of urea directly proportional to the activity of Arginase II
Assay type: functional
Set-up: scale not given: in the data most compounds retested in dose-response had high values
Conditions: 33.3 µM
Numbers only, in %.

COMPOUND	Percent Effect [%]
Clc1ccc(OCCN2CCN(CCn3cncn3)CC2)cc1	-2.86
CN(CC(=O)N(C)C1CCCCC1)C1CCc2ccccc21 (configuration not stated)	3.45
COCc1ccccc1NC(=O)[C@@H]1CCCN1C(=O)c1ccco1	6.62
CCNC(=O)CN1CCCN(C(=O)C2CCCc3[nH]ncc32)CC1 (configuration not stated)	5.21
CN(C)S(=O)(=O)N1CCN(c2nccc(C(F)(F)F)n2)CC1	0.909
O=C1OCCN1CCc1nc(-c2cc3c4c(c2)CC(=O)N4CCC3)cs1	-0.712

Could you tell me Percent Effect for each of these compounds? They are listed below.
1. Cc1cnn(CCNCc2nc(-c3ccccc3Cl)no2)c1
2. COCc1cc(NCCc2ccc(F)cc2)n2nccc2n1
3. O=C(Cc1ccsc1)NCC1OCCc2cn(CC3CC3)nc21 (configuration not stated)

(A)
1. -4.98
2. -2.27
3. 4.52
